All figures here come from ChEMBL document CHEMBL3352151.

Assay: Cytotoxicity against human HaCaT cells assessed as cell viability at 100 ug/ml after 18 hrs by MTT assay
Type: cell-based
Settings: read-out: Activity
Square brackets hold non-standard residues; d marks the D form. Peptide text beside a SMILES is read from it. * marks the point of attachment. Stearoyl = CCCCCCCCCCCCCCCCCC(=O)*; Myristoyl = CCCCCCCCCCCCCC(=O)*; Orn = NCCC[CH](N)C(=O)O
measured-parameter: viability at 18 h, 100 ug/ml

compound | measured-parameter | measured-result
CCCCCCCCCCCCCCCCCC(=O)NC(CCCN)C(=O)NC(CCCN)C(=O)NC(CCCN)C(=O)NC(CCCN)C(N)=O (stereo not given) (Stearoyl-[Orn][Orn][Orn][Orn]-NH2; configuration not given here) | viability at 18 h, 100 ug/ml | 82%
CCCCCCCCCCCCCC(=O)NC(CCCN)C(=O)NC(CCCN)C(=O)NC(CCCN)C(=O)NC(CCCN)C(N)=O (stereo not given) (Myristoyl-[Orn][Orn][Orn][Orn]-NH2; configuration not given here) | viability at 18 h, 100 ug/ml | > 80%
CCCCCCCCCCCCCCCC(=O)NC(CCCN)C(=O)NC(CCCN)C(=O)NC(CCCN)C(N)=O (stereo not given) | viability at 18 h, 100 ug/ml | > 80%
CCCCCCCCCCCCCC(=O)NC(CCCN)C(=O)NC(CCCN)C(=O)NC(CCCN)C(=O)NC(CCCN)C(=O)NC(CCCN)C(N)=O (stereo not given) (Myristoyl-[Orn][Orn][Orn][Orn][Orn]-NH2; configuration not given here) | viability at 18 h, 100 ug/ml | > 80%
CCCCCCCCCCCCCCCCCC(=O)NC(CCCN)C(=O)NC(CCCN)C(=O)NC(CCCN)C(=O)NC(CCCN)C(=O)NC(CCCN)C(N)=O (stereo not given) (Stearoyl-[Orn][Orn][Orn][Orn][Orn]-NH2; configuration not given here) | viability at 18 h, 100 ug/ml | > 80%
